- Test system: SK-MEL-5
- protocol_summary: NCI tumour cell line growth inhibition, 48 h
Active and inactive are the calls of the source. Rule as the data show it: active = GI50 up to about 1.1 µM and inactive = higher.
Pick one: active, inactive

Call for entry Cc1ccc(S(=O)(=O)N/N=C2\CCCCCCCCCCC2CN(C)C)cc1 (stereo unspecified) : inactive

Subsequent entry: Cc1ccc(OCC2OC(n3cnc4c(Cl)nc(N)nc43)CC2Oc2ccc(C)cc2)cc1 (stereo unspecified) inactive

Consider next the compound COC(=O)C(F)C(Br)C(=O)OC (stereo unspecified) in the same way. inactive

Do the same for O=c1oc2ccccc2[n+]([O-])c1-c1ccccc1 please inactive

Consider next the compound CCOC(=O)c1c(-c2ccc(OC)cc2)c(C#N)c(=S)n(C2OC(COC(C)=O)C(OC(C)=O)C(OC(C)=O)C2OC(C)=O)c1-c1ccccc1 (stereo unspecified) in the same way. inactive

Subsequent entry: N#Cc1ccccc1NC(=O)/C(=N\Nc1ccc([N+](=O)[O-])cc1)C1C(=O)NC(=O)NC1=O inactive

Now consider O=C1CCN2C(=N1)Sc1ccccc12 . inactive

Same question for CC(C)(C)OC(=O)c1ccc(NCc2cc(O)ccc2O)cc1 please. inactive

Same thing, different compound: COc1ccccc1/C=C1\CCC(CCN(C)C)(C2=CCCC2)C1=O (stereo unspecified) inactive

Query CCOC(=O)CC[C@H](NC(=O)c1ccc(CNc2nc3cc(C(F)(F)F)ccc3nc2C(=O)OCC)cc1)C(=O)OCC next inactive

Next: CC(C)(C)NCCC(O)c1cc(C(F)(F)F)nc2c(C(F)(F)F)cccc12 (stereo unspecified) inactive

Entry to check: O=c1[nH]nc(Cc2ccc([N+](=O)[O-])cc2)n1CCO inactive

Same lookup for CCOC(=O)C(C(=O)OCC)=C1SC(=N\c2ccccc2)/C(=N/c2ccccc2)N1c1ccccc1 , please. inactive

Try the compound C=CCN1C(=O)/C(=C/c2ccccc2)NC1=S inactive

Subsequent entry: CCN(CC)CC1CCCCN1CC(=O)N1c2ccccc2NC(=O)c2ccccc21 (stereo unspecified) inactive

Would you kindly repeat that for O=C1CCc2c(sc3ncnc(Nc4cccc(Br)c4)c23)C1 ? inactive

One more compound: CCN(CC)CC(O)CNc1ccc(NCC2CO2)c2c1C(=O)c1ccccc1C2=O (stereo unspecified) active

Would you mind doing Cc1cc(C)c(C(=O)C(C)C(c2ccccc2)c2ccc(Cl)cc2)c(C)c1 (stereo unspecified) as well? inactive

And the next one, CC(C)NC(=O)OCc1c(COC(=O)NC(C)C)c(-c2ccc[n+](COC(=O)C3CCCCC3)c2)n2c1CCC2 ? inactive

Another compound to check: NC(=O)NC(=O)c1cccc(C(=O)NC(N)=O)n1 inactive

And then CCOc1ccc2c(C)cc(=O)oc2c1 , what is it? inactive

###

Task for the reader: assign each of the following compounds its reported GI50.
- Test system: OVCAR-5
- protocol_summary: NCI tumour cell line growth inhibition, 48 h
Activity calls are given as the source filed them. Rule as the data show it: active = GI50 up to about 1.1 µM and inactive = higher. Starred links: 1 amine or outer side, 2 acyl side, 3 side chain; linkers in the order of their positions; H or OH if unused. Non-standard residues stand in square brackets, D forms with d. Residues, ends and D or L forms follow the SMILES beside them. X35 = C=CCC(O[*:1])C(=O)[*:2]; NMeV = CN[CH](C(=O)O)C(C)C; NMeA = CN[CH](C)C(=O)O; βAla = NCCC(=O)O

Which GI50 is reported for this compound? CN(c1ccccc1Cl)S(=O)(=O)c1ccccc1 > 100 µM (inactive)

Follow-up entry: COc1ccc(SCc2cc(OC)c(OC)c(OC)c2)cc1OC > 94.6 µM (inactive)

Try this compound too: O=C1CSC(c2cccc(Cl)c2)N1c1c(O)c(Cl)cc(Br)c1Cl (stereo not drawn) > 100 µM (inactive)

Next: CC1=CCC23C(C1)OC(Br)(C=CC2(C)O)C3(C)C (stereo not drawn) > 100 µM (inactive)

Next compound: CN(C)c1ccc(C2CC(=O)C(C#N)=C(c3ccccc3)NN2C)cc1 (stereo not drawn) > 100 µM (inactive)

Another compound to look at: FC(F)(F)c1ccc2nc(Sc3ccccn3)cnc2c1 > 100 µM (inactive)

And what about the compound C=CCC12CCC(=O)[C@@]1(C)CC=C(O)C2=O (stereo partly drawn) ? > 100 µM (inactive)

Another compound to check: c1ccc(COC2NCCN2Cc2ccccc2)cc1 (stereo not drawn) > 100 µM (inactive)

Next compound up: O=C1CCC(NC(=O)Cc2ccc(O)cc2)C(=O)N1 (stereo not drawn) > 2500 µM (inactive)

Here is the next compound: COc1ccc(-c2cc(=O)c3c(O)c(OC)c(O)cc3o2)cc1O 32.8 µM (inactive)

And then Cc1cc2[nH]c3c(C#N)c4c(c(=O)n3c2cc1C)CCCC4 , what is it? 18.7 µM (inactive)

Try this compound next: CCOC(=O)C1=C(N2CCCC2)NC(=O)CC1=O > 100 µM (inactive)

Now consider CCCC(=O)Oc1ccc(/C=N/NC(N)=S)nc1 and answer again. > 100 µM (inactive)

Request: C=CCc1cc(C=C(C#N)C#N)cc(OC)c1O > 100 µM (inactive)

Moving on to O=C(Cc1ccc(F)cc1)NC1=C(Cl)C(=O)c2ccccc2C1=O 3.85 µM (inactive)

Now the same for COC(=O)/C(=N/NC(N)=O)C(C(=O)C(=O)Nc1ccc(C)cc1)c1nc2ccc(C(=O)c3ccccc3)cc2nc1O (stereo not drawn) > 100 µM (inactive)

What do we get for O=C(/C=C/c1ccc(Cl)c(Cl)c1)c1ccc2ccccc2c1 ? > 100 µM (inactive)

Moving on to Cc1ccc(S(=O)(=O)N/N=C2\CCCCCCCCCCC2CN(C)C)cc1 (stereo not drawn) 16.3 µM (inactive)

# iterate: CN1C(=O)C(C(=O)Nc2ccccn2)C2C[C@@]1(C)Oc1ccccc12 (stereo partly drawn) > 100 µM (inactive)

Same question for COc1ccc(C=C2C(=O)NC(=S)NC2=O)c2ccccc12 please. 5.13 µM (inactive)

Would you kindly repeat that for O=[As](O)(O)c1ccc(/N=N/c2ccc(O)cc2)cc1 ? > 100 µM (inactive)

Try O=C1/C(=C/c2cccc(F)c2)CCCc2ccccc21 next. 15.1 µM (inactive)

For O=[N+]([O-])c1ccc(CSCc2ccc(Cl)cc2)cc1 then? > 100 µM (inactive)

Next compound: C[N+](C)(C)CCc1ccccc1 > 100 µM (inactive)

What about this compound? Cc1cn(C2CC(OC(=O)c3ccc(Cl)cc3)C(COC(=O)c3ccc(Cl)cc3)O2)c(=O)[nH]c1=O (stereo not drawn) > 100 µM (inactive)

Check CC(SC(=S)N1CCOCC1)c1cc2oc(=O)n(C)c2cc1Cl (stereo not drawn) too. > 100 µM (inactive)

// query: COc1cc2c(c(O)c1O)-c1ccc(OC)c(=O)cc1C(NC(C)=O)CC2 (stereo not drawn) 76.6 µM (inactive)

Continue with C=CCC1OC(=O)CCNC(=O)C(C)N(C)C(=O)C(C(C)C)N(C)C(=O)C(C(C)CC)NC(=O)C2CCCN2C1=O (stereo not drawn) (cyclo([X35]PI[NMeV][NMeA][βAla]); configuration not given here) > 100 µM (inactive)

Now try O=C(Nc1c(Cl)cc([N+](=O)[O-])cc1Cl)C(=O)C(C(=O)c1ccncc1)C1OC(=O)c2ccccc21 (stereo not drawn) . > 100 µM (inactive)

Another compound to check: CN1CCC23c4c5ccc(Oc6nnnn6-c6ccccc6)c4OC2c2[nH]c4ccccc4c2CC3(O)C1C5 (stereo not drawn) 17.2 µM (inactive)

And for CC1CC(N)=Nc2ccccc2N1Cc1ccccc1 (stereo not drawn) ? 31.8 µM (inactive)

Another: COc1cccc2c1C1=CC(=O)CCC1C(C)(C)O2 (stereo not drawn) > 100 µM (inactive)

Now the compound COc1ccc(-c2coc3cc(O)ccc3c2=O)cc1 [FORMONONETIN] > 100 µM (inactive)

And the next one, COc1ccccc1CNC1=Nc2ccncc2S(=O)(=O)N1c1ccccc1 ? > 100 µM (inactive)

Follow-up entry: C=CCN1C(=O)CNC1=S > 100 µM (inactive)

Further, for C[n+]1c2ccccc2n2c3ccccc3c(NCCCN3CCOCC3)c(C#N)c21 ? 1.44 µM (inactive)

Queued: O=c1nc(NC2CCCCO2)ccn1CCO (stereo not drawn) > 100 µM (inactive)

How about this compound: CCCCCCCCC/C=C1\CCC(CN2CCOCC2)C1=O (stereo not drawn) 16.9 µM (inactive)

Another compound to check: Cc1ccc([C@H]2CC(=O)C[C@H](c3ccc(C)cc3)C23C(=O)c2ccccc2C3=O)cc1 > 100 µM (inactive)

Further, for Cc1cc(C)c(-n2c(-c3ccccc3)cs/c2=N\N=C2C=C(C(C)(C)C)C(=O)C(C(C)(C)C)=C2)c(C)c1 ? > 100 µM (inactive)

Again, but for CCNc1c(C(=O)N(CC)CC)c(=O)[nH]c2ncccc12 > 100 µM (inactive)

How about COC(=O)C1(C#N)C(C)(C)N=C(c2ccccc2)C12CCCCC2 (stereo not drawn) ? > 100 µM (inactive)

Now the same for CC1CCC2C(C)C3C(CC4C5CC=C6CC(OC7OC(CO)C(O)C(OC8OC(CO)C(O)C(O)C8O)C7OC7OC(C)C(O)C(O)C7O)CCC6(C)C5CCC43C)N2C1 (stereo not drawn) 14.3 µM (inactive)
